# experimentNotes: Neurotoxicity in ip dosed BALB/c mouse after 30 mins by rotarod test
# Format: toxicity, organism-based
# protocolConditions: in vivo
attributeMeasured: TD50 at 0.5 h

Query: Consider the compound NC(=O)N1c2ccccc2C=Cc2ccccc21 [CARBAMAZEPINE] and give its measured TD50 at 0.5 h.
Response: > 71.6 mg/kg

Query: Consider the compound Cc1cccc2c1N(CC(=O)Nc1ccccc1)C(=O)C2=O and give its measured TD50 at 0.5 h.
Response: > 1000 mg/kg

Query: Consider the compound Cc1ccc2c(c1)C(=O)C(=O)N2CC(=O)Nc1ccccc1 and give its measured TD50 at 0.5 h.
Response: > 1000 mg/kg

Query: Consider the compound O=C(CN1C(=O)C(=O)c2cc(Cl)ccc21)Nc1ccccc1 and give its measured TD50 at 0.5 h.
Response: > 800 mg/kg

More entries:
Query: Consider the compound O=C(CN1C(=O)C(=O)c2ccccc21)Nc1ccccc1 and give its measured TD50 at 0.5 h.
Response: > 1000 mg/kg

Query: Consider the compound O=C(CN1C(=O)C(=O)c2cc(F)ccc21)Nc1ccccc1 and give its measured TD50 at 0.5 h.
Response: > 800 mg/kg

Query: Consider the compound Cc1ccc2c(c1)N(CC(=O)Nc1ccccc1)C(=O)C2=O and give its measured TD50 at 0.5 h.
Response: > 1000 mg/kg

Query: Consider the compound CCC1(c2ccccc2)C(=O)NC(=O)NC1=O [PHENOBARBITAL] and give its measured TD50 at 0.5 h.
Response: > 69 mg/kg
